System: human MR (Homo sapiens, UniProt P08235)
Construct: The full length human MR gene is cloned from a human kidney or human brain cDNA library; His tag from the pAcHLT vector (own knowledge); made in house; host or cells: Sf9 insect cells (baculovirus, pAcHLT transfer vector)
Procedure text: Mineralocorticoid Receptor Binding Assay ([3H]-aldosterone)
Stated conditions: [3H]-aldosterone binding, human MR expressed in Sf9 cells; read-out: MR Ki
Quantity measured: Ki

Inquiry: Kindly indicate its recorded Ki. Item: COc1cccc(C=C2c3cc(Cl)ccc3NC(=O)c3ccccc32)c1
Reply text: < 500 nM

Inquiry: Kindly indicate its recorded Ki. Item: CC(C)Cn1c(=O)[nH]c2cc(/C=C3\c4ccccc4COc4cc(F)ccc43)ccc21
Reply text: < 500 nM

Inquiry: Kindly indicate its recorded Ki. Item: CN(C)c1cccc2c1CCc1ccccc1C2=Cc1cccc(NS(C)(=O)=O)c1
Reply text: < 500 nM

Inquiry: Kindly indicate its recorded Ki. Item: Oc1cc(C=C2c3ccccc3CCc3c(Cl)cccc32)ccc1Cl [173(a)]
Reply text: < 500 nM

Inquiry: Kindly indicate its recorded Ki. Item: CS(=O)(=O)Nc1csc(C=C2c3ccccc3CCc3ccccc32)n1
Reply text: < 500 nM

====

Record form. Attribute: melting point. Fill in for each entry.
Could you give me the number in °C? Just the number is fine.

Inquiry: Kindly indicate its recorded melting point. Item: Cc1ccc(C=C2c3ccccc3CCc3ccccc32)c(S(=O)(=O)N(C)C)c1
Reply text: 186.6

Inquiry: Kindly indicate its recorded melting point. Item: Cc1ccc(C=C2c3ccccc3CCc3ccccc32)c(S(=O)(=O)NC2CC2)c1
Reply text: 160.8

Inquiry: Kindly indicate its recorded melting point. Item: Oc1ccc(C=C2c3ccccc3CCc3ccccc32)cc1O
Reply text: 138

Inquiry: Kindly indicate its recorded melting point. Item: O=S(=O)(c1ccccc1C=C1c2ccccc2CCc2ccccc21)N1CCOCC1
Reply text: 139.3

Inquiry: Kindly indicate its recorded melting point. Item: NS(=O)(=O)c1cccc(C=C2c3ccccc3CCc3ccccc32)c1
Reply text: 204

Inquiry: Kindly indicate its recorded melting point. Item: FC(F)Oc1ccc(C=C2c3ccccc3CCc3ccccc32)cc1
Reply text: 65.8

Inquiry: Kindly indicate its recorded melting point. Item: CNS(=O)(=O)c1cc(C)ccc1C=C1c2ccccc2CCc2ccccc21
Reply text: 174.9

Inquiry: Kindly indicate its recorded melting point. Item: Cc1nc2c(o1)CCc1ccccc1/C2=C/c1cccc(NS(C)(=O)=O)c1
Reply text: 184.6

Inquiry: Kindly indicate its recorded melting point. Item: Nc1ccccc1C=C1c2ccccc2CCc2ccccc21
Reply text: 145.2

====

System: human MR (Homo sapiens, UniProt P08235)
Construct: The full length human MR gene is cloned from a human kidney or human brain cDNA library; His tag from the pAcHLT vector (own knowledge); made in house; host or cells: Sf9 insect cells (baculovirus, pAcHLT transfer vector)
Sequence (P08235 1-984): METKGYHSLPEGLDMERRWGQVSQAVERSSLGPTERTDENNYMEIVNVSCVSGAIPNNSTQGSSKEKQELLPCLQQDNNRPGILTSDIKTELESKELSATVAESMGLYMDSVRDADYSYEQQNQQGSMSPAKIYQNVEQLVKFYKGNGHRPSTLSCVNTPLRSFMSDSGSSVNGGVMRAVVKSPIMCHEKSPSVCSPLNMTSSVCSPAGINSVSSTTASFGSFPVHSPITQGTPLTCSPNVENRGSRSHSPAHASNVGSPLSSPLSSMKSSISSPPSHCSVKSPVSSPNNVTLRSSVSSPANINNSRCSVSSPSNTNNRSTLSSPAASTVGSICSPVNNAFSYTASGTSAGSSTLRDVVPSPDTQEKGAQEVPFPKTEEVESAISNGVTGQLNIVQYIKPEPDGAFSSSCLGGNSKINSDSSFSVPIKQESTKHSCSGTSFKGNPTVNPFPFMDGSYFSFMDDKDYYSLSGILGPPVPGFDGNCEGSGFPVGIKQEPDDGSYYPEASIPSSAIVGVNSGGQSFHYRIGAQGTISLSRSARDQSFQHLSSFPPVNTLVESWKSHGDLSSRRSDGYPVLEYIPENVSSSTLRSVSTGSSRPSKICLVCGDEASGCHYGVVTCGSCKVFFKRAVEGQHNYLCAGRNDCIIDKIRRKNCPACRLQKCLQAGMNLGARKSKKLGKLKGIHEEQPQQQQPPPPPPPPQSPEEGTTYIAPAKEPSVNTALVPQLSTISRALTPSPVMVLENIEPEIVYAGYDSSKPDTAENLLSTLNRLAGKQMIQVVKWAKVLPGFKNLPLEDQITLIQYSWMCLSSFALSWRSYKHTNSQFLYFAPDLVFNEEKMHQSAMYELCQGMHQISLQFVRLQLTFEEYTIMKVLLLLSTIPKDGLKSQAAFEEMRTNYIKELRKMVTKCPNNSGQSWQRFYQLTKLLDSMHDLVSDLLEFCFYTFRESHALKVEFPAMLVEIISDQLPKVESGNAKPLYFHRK
Procedure text: Mineralocorticoid Receptor Binding Assay ([3H]-aldosterone)
Stated conditions: [3H]-aldosterone binding, human MR expressed in Sf9 cells; read-out: MR Ki
pKi: −log10 of the molar value.
Quantity measured: pKi

Inquiry: Kindly indicate its recorded pKi. Item: Cc1c(C=C2c3ccccc3CCc3ccccc32)cccc1NS(C)(=O)=O [Example 48]
Reply text: > 6.30

Inquiry: Kindly indicate its recorded pKi. Item: Oc1cccc(/C=C2\c3ccccc3CCc3c(O)cccc32)c1 [Example 376]
Reply text: > 6.30

Inquiry: Kindly indicate its recorded pKi. Item: CS(=O)(=O)Nc1cccc(/C=C2\c3ccccc3COc3ccccc32)c1 [Example 267]
Reply text: > 6.30

Inquiry: Kindly indicate its recorded pKi. Item: COc1cc(C=C2c3ccccc3CCc3ccccc32)ccc1F [Example 148]
Reply text: > 6.30

Inquiry: Kindly indicate its recorded pKi. Item: COC(=O)c1ccc(/C=C2\c3ccc(F)cc3CCc3ncccc32)cc1 [Example 584]
Reply text: > 6.00

====

System: glucocorticoid receptor (Homo sapiens, UniProt P04150)
Sequence (P04150 1-777): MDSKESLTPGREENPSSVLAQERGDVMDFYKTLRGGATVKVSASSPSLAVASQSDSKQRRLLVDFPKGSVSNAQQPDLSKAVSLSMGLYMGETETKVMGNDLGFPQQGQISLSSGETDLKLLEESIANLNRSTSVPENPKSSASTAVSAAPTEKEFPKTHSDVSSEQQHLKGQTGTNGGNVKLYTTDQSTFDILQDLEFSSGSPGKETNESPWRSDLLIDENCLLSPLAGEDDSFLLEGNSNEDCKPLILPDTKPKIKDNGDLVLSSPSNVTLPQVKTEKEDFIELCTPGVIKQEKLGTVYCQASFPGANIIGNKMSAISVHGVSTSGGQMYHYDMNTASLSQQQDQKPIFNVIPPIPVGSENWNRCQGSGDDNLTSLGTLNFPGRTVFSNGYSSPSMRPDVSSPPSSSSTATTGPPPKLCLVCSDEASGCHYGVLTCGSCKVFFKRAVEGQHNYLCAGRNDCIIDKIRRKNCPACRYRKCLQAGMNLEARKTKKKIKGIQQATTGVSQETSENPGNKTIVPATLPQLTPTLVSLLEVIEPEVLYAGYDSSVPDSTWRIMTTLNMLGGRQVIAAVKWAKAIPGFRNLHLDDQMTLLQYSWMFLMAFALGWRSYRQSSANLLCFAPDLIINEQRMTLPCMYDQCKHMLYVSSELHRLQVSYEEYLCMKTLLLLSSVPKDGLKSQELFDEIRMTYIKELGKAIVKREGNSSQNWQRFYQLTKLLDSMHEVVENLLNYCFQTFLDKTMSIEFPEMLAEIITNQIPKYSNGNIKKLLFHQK
Record form. Attribute: Ki. Fill in for each entry.

Inquiry: Kindly indicate its recorded Ki. Item: Fc1ccc2c(c1)CCc1ccccc1C2=Cc1cccnc1F [Example 474]
Reply text: < 1 µM

Inquiry: Kindly indicate its recorded Ki. Item: Cc1ccccc1C=C1c2ccccc2CCc2ccccc21 [Example 130]
Reply text: < 10 µM

Inquiry: Kindly indicate its recorded Ki. Item: CCCOc1ccc2c(c1)CCc1ccccc1C2=Cc1cccc(NS(C)(=O)=O)c1 [Example 332]
Reply text: < 0.5 µM

Inquiry: Kindly indicate its recorded Ki. Item: CS(=O)(=O)Nc1cccc(C(=C2c3ccccc3CCc3ccccc32)c2ccccc2)c1 [Example 762]
Reply text: < 0.5 µM

Inquiry: Kindly indicate its recorded Ki. Item: CCC(=C1c2ccc(C)cc2CCc2cc(F)ccc21)c1cccc(NS(C)(=O)=O)c1 [Example 833]
Reply text: < 0.5 µM

Inquiry: Kindly indicate its recorded Ki. Item: Oc1ccc(F)c(C=C2c3ccccc3CCc3ccccc32)c1 [Example 151]
Reply text: < 1 µM

Inquiry: Kindly indicate its recorded Ki. Item: CS(=O)(=O)Nc1cccc(/C=C2\c3ccccc3CCc3scnc32)c1 [484(a)]
Reply text: < 0.5 µM

Inquiry: Kindly indicate its recorded Ki. Item: CS(=O)(=O)Nc1cccc(/C=C2\c3ccccc3CCc3cc(C(F)(F)F)ccc32)c1 [Example 391]
Reply text: < 0.5 µM

Inquiry: Kindly indicate its recorded Ki. Item: Oc1cccc(C=C2c3ccccc3CCc3ccccc32)c1F [Example 153]
Reply text: < 1 µM

Inquiry: Kindly indicate its recorded Ki. Item: CS(=O)(=O)Nc1cccc(/C=C2\c3ccccc3COc3c(Cl)cccc32)c1 [Example 663]
Reply text: < 0.5 µM

Inquiry: Kindly indicate its recorded Ki. Item: CS(=O)(=O)Nc1cccc(/C=C2\c3ccccc3CCc3cc(C(N)=O)ccc32)c1 [Example 416]
Reply text: < 0.5 µM

Inquiry: Kindly indicate its recorded Ki. Item: Oc1cc(C=C2c3ccccc3CCc3c(Cl)cccc32)ccc1Cl [173(a)]
Reply text: < 0.5 µM
